B1: FAS-associated death domain protein (Homo sapiens), Q13158 (parent)
chain: MDPFLVLLHSVSSSLSSSELTELKFLCLGRVGKRKLERVQSGLDLFSMLLEQNDLEPGHTELLRELLASLRRHDLLRRVDDFEAGAAAGAAPGEEDLCAAFNVICDNVGKDWRRLARQLKVSDTKIDSIEDRYPRNLTERVRESLRIWKNTEKENATVAHLVGALRSCQMNLVADLVQEVQQARDLQNRSGAMSPMSWNSDASTSEAS

variants of: B1; conditions: with FAS
assay-metric: effect of a mutation on the interaction

variant	test-value
D123R	decreasing interaction
R142E	decreasing interaction
R135E	decreasing interaction
K153E	decreasing interaction
